Tested on: RXRa homodimer (NR concentration 180 nM)
TEST_DETAILS: PBM binding z-score (relative to random genomic background probes); higher = stronger binding; sequences stand for … in GC…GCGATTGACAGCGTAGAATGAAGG
ENDPOINT_LABEL: PBM binding z-score
// return just the number, without any unit appended

See these solved cases before continuing.
>  <SEQUENCE_STRING>
CGTCCGAGGTCAGCAGGTCAGTGAAAGCGACGTG

>  <ENDPOINT_LABEL>
PBM binding z-score

>  <VALUE_MEASURED>
6.26

$$$$
>  <SEQUENCE_STRING>
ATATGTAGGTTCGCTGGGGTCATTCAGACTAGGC

>  <ENDPOINT_LABEL>
PBM binding z-score

>  <VALUE_MEASURED>
5.54

$$$$

Prompt: Tell us which PBM binding z-score value is on record for `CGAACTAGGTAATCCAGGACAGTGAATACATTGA`
Completion: -0.0168

Prompt: Note PBM binding z-score for the sequence shown: `ATCTCTAGGTAAAAGCTCAGTGAATCCCGAGGAT`
Completion: -0.149

Prompt: Return reported PBM binding z-score. Input sequence: `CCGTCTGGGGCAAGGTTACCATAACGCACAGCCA`
Completion: 0.988

Prompt: Quote PBM binding z-score reported for `TCATAAAGGTAAAGGTGAAAGTCGAACGATATGA` please.
Completion: 2.73

Prompt: State, in one line, measured PBM binding z-score of `AATATTAGTTGACTTAGGGCAACCGATACGACGC`
Completion: 0.76

Prompt: Please indicate PBM binding z-score recorded for `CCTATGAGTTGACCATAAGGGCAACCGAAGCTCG`
Completion: 0.985

Prompt: Given `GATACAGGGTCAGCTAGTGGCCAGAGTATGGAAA` , respond with its PBM binding z-score.
Completion: 3.81

Prompt: Fill in reported PBM binding z-score for this entry: `AATACAGGGTCATCCTAGGCCAGAGTACGCACAG`
Completion: 6.16

Prompt: // Input: `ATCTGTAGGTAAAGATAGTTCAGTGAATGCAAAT` . Output its PBM binding z-score only.
Completion: 0.326

Prompt: For the sequence `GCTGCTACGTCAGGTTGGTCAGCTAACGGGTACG` , give its reported PBM binding z-score.
Completion: -0.469

Prompt: Note PBM binding z-score for the sequence shown: `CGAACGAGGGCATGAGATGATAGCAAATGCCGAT`
Completion: 0.882

Prompt: Identify measured PBM binding z-score associated with `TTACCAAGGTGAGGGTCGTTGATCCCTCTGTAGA`
Completion: 1.37

###

System: PPARa:RXRa (NR concentration 270 nM, RXRa partner concentration 90 nM)
TEST_DETAILS: PBM binding z-score (relative to random genomic background probes); higher = stronger binding; sequences stand for … in GC…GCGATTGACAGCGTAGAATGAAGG
Output 1 for PBM binding z-score not less than 4; output -1 otherwise.

Reference set (8 entries):
>  <SEQUENCE_STRING>
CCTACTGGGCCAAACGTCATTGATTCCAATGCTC

>  <GROUP_LABEL>
-1

$$$$
>  <SEQUENCE_STRING>
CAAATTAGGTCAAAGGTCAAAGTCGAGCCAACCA

>  <GROUP_LABEL>
1

$$$$
>  <SEQUENCE_STRING>
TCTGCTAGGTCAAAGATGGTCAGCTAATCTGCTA

>  <GROUP_LABEL>
-1

$$$$
>  <SEQUENCE_STRING>
CATACAGGGTCAGCTAGGCCAGAGTCGGGACGGC

>  <GROUP_LABEL>
1

$$$$
>  <SEQUENCE_STRING>
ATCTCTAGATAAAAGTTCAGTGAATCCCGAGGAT

>  <GROUP_LABEL>
-1

$$$$
>  <SEQUENCE_STRING>
TCTAGTTGGTCCCGGAGGTCACACACGACGGGTA

>  <GROUP_LABEL>
-1

$$$$
>  <SEQUENCE_STRING>
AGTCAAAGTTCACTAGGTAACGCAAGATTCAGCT

>  <GROUP_LABEL>
1

$$$$
>  <SEQUENCE_STRING>
GGATCGAGGGCAAAGTTGATAGCATCTGTCGACG

>  <GROUP_LABEL>
1

$$$$

Consider now this further sequence.
Prompt: Hi team, for `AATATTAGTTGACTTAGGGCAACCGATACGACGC` , is the recorded PBM binding z-score at or above 4?
Completion: -1

###

System: VDR:RXRa (NR concentration 270 nM, RXRa partner concentration 90 nM)
TEST_DETAILS: PBM binding z-score (relative to random genomic background probes); higher = stronger binding; sequences stand for … in GC…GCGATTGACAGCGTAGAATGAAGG
Is PBM binding z-score at least 4? Then Y. If not, N.

Past entries and their recorded results:
>  <SEQUENCE_STRING>
ATATGTTGGTTAAGGGTCATTCAGGTTGGTTCGC

>  <ASSAYED_TARGET>
VDR:RXRa (NR concentration 270 nM, RXRa partner concentration 90 nM)

>  <GROUP_LABEL>
Y

$$$$
>  <SEQUENCE_STRING>
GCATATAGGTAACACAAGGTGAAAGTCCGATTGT

>  <ASSAYED_TARGET>
VDR:RXRa (NR concentration 270 nM, RXRa partner concentration 90 nM)

>  <GROUP_LABEL>
N

$$$$
>  <SEQUENCE_STRING>
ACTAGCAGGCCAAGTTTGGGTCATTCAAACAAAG

>  <ASSAYED_TARGET>
VDR:RXRa (NR concentration 270 nM, RXRa partner concentration 90 nM)

>  <GROUP_LABEL>
N

$$$$

Prompt: Is PBM binding z-score for `GCTAGGTGGTCAGTAAAAGGTCACACACCGGTCG` at or above 4?
Completion: Y

Prompt: Item `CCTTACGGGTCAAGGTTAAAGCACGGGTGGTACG` with PBM binding z-score of 4 or above?
Completion: N

Prompt: Would you say `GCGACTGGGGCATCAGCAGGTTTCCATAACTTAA` shows PBM binding z-score at minimum 4?
Completion: N

Prompt: Hello, I need to know if `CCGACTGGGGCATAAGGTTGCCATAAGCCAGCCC` has measured PBM binding z-score not below 4. Thanks!
Completion: N

Prompt: Entry `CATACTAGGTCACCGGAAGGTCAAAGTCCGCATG` : is its PBM binding z-score no less than 4?
Completion: Y

###

System: PXR:RXRa (NR concentration 270 nM, RXRa partner concentration 90 nM)
TEST_DETAILS: PBM binding z-score (relative to random genomic background probes); higher = stronger binding; sequences stand for … in GC…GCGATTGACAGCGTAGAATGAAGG
ENDPOINT_LABEL: PBM binding z-score
No unit in the answer, please; the number alone is enough.

Prompt: For the sequence `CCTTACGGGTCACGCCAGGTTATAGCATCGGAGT` , give its reported PBM binding z-score.
Completion: 5.46

Prompt: Could you please provide reported PBM binding z-score for `CCTCGGCGGACAGAAGGTCAGAGCTGTCCGCTTT` ? Thanks!
Completion: 1.26

Prompt: Let me know recorded PBM binding z-score for `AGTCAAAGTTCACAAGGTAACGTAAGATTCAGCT` , thanks.
Completion: 4.78

Prompt: Indicate the recorded PBM binding z-score value for this sequence: `CGAACGAGGGCATGAGTTGATAGTAAATGCCGAT`
Completion: 0.636

###

Test system: RARb:RXRa (NR concentration 270 nM, RXRa partner concentration 90 nM)
TEST_DETAILS: PBM binding z-score (relative to random genomic background probes); higher = stronger binding; sequences stand for … in GC…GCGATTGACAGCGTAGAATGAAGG
Given measured PBM binding z-score, output t if it is greater than or equal to 2 and f if not.

>  <SEQUENCE_STRING>
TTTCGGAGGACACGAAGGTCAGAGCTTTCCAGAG

>  <GROUP_LABEL>
t

$$$$
>  <SEQUENCE_STRING>
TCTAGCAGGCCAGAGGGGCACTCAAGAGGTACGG

>  <GROUP_LABEL>
f

$$$$
>  <SEQUENCE_STRING>
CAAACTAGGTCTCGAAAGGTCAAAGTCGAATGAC

>  <GROUP_LABEL>
t

$$$$
>  <SEQUENCE_STRING>
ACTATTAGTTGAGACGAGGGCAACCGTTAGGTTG

>  <GROUP_LABEL>
f

$$$$
>  <SEQUENCE_STRING>
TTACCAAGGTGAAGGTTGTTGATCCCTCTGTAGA

>  <GROUP_LABEL>
f

$$$$

Below: the item to evaluate.
Prompt: Answer whether PBM binding z-score of `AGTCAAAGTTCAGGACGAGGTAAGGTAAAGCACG` is greater than or equal to 2.
Completion: t
